- Tested on: HCT-116
- Test name: NCI tumour cell line growth inhibition, 48 h
Calls of active or inactive are those of the source. Cut-off read from the data, not from the text of the source: active = GI50 up to about 1.1 µM and inactive = higher.
Your response should consist of one outcome taken from active, inactive

Answered cases to consult:
CN(C)c1ccc(-c2c(C#N)c(O)n(NS(=O)(=O)c3ccccc3)c(=O)c2C#N)cc1: inactive
CCOc1cc2c(NCCCN(CCO)CCO)ncnc2c(OCC)c1OCC: inactive
[O-][n+]1ccccc1S: active
CC1=C2CC(C)(C)CC(=O)C2(C)CCC1=O (stereo not drawn): inactive
COc1ccc(NC2Oc3cc4c(cc3C(c3cccc(OC)c3OC)C2C)OCO4)cc1 (stereo not drawn): inactive

Incoming: Which outcome was assigned to COC(=O)c1cc2c(cc1CC(Cc1ccc3c(c1)CCCC3)C(=O)OC)CCCC2 (stereo not drawn) in this test?
Outgoing: inactive

Incoming: Which outcome was assigned to CC(=O)O[C@H]1C[C@H](O[C@H]2[C@@H](O)C[C@H](O[C@H]3[C@@H](O)C[C@H](O[C@H]4CC[C@@]5(C)[C@H](CC[C@@H]6[C@@H]5CC[C@]5(C)[C@@H](C7=CC(=O)OC7)CC[C@]65O)C4)O[C@@H]3C)O[C@@H]2C)O[C@H](C)[C@H]1O[C@@H]1O[C@H](CO)[C@@H](O)[C@H](O)[C@H]1O in this test?
Outgoing: active

Incoming: Which outcome was assigned to Cn1c(=O)c2c(nc(N/N=C3/SCC(=O)N3Cc3ccccc3)n2C)n(C)c1=O in this test?
Outgoing: inactive

---

- Tested on: HCC 2998
- Test name: NCI tumour cell line growth inhibition, 48 h
Activity calls are given as the source filed them. Rule as the data show it: active = GI50 up to about 1.1 µM and inactive = higher.
Measurement label: GI50

Examples with their reported GI50 follow.
O=C1CCC(=O)N1CNc1cccc(NCN2C(=O)CCC2=O)c1: > 100 µM (inactive)
CC1(C)CC23C4COC(=O)C2CCC1C3CC4=O (stereo not drawn): 13.9 µM (inactive)
C[N+]1([O-])CCC(O)(C2CC2)CC1 (stereo not drawn): > 100 µM (inactive)
CN(C)CCNC(=O)Cn1cc([N+](=O)[O-])c(=O)c2ccccc21: > 100 µM (inactive)
CSc1c(C#N)c(N)nc2c(/N=N\c3ccc(Cl)cc3)c(N)nn12: 5.94 µM (inactive)
C=CCC1(C)CCCN(Cc2ccccc2)C1=O (stereo not drawn): > 10 µM (inactive)

Incoming: Requested field: GI50. Item: CC(=O)NC(CCCOC(C)=O)C(=O)NC(CCCOC(C)=O)C(=O)NC(CCCOC(C)=O)C(=O)NC(Cc1ccc([N+](=O)[O-])cc1)C(=O)NCC(=O)OCc1ccccc1 (stereo not drawn)
Outgoing: > 100 µM (inactive)

Incoming: Requested field: GI50. Item: Cc1ccc(C2=C(c3ccccc3)C(Br)(c3ccc(C)cc3)C(c3ccccc3)=C2c2ccc(C)cc2)cc1
Outgoing: > 100 µM (inactive)

---

- Test system: HCT-116
- Test name: NCI tumour cell line growth inhibition, 48 h
Active and inactive are the calls of the source. No stated cut-off is given here; in the data, active = GI50 up to about 1.1 µM and inactive = higher.
Some molecules, each annotated with its measured GI50.

Examples with their reported GI50 follow.
CC1C2CC(CC2N)C1(C)C (stereo not given): > 100 µM (inactive)
O=C1NC2(C=Cc3c(ccc4ccccc34)O2)Oc2ccccc21 (stereo not given): 12.7 µM (inactive)
C=C/C=C/NC(=O)OCc1ccccc1: > 100 µM (inactive)
COc1ccc2c(c1)CCC(CN1CCN(CCOC(c3ccc(F)cc3)c3ccc(F)cc3)CC1)=C2: 7.26 µM (inactive)
CCCC1CC(=O)NC(=O)C1C(=O)OC(C)(C)C (stereo not given): > 100 µM (inactive)

Incoming: Requested field: GI50. Item: CC1CC[C@@]2(OC1)OC1C[C@H]3[C@@H]4CC[C@H]5CC(OC6OC(CO)C(OC7OC(CO)C(O)C(O)C7OC7OC(CO)C(O)C(O)C7O)C(O)C6O)CCC5(C)[C@H]4CCC3(C)C1[C@@H]2C (stereo not given in full)
Outgoing: 1.94 µM (inactive)

Incoming: Requested field: GI50. Item: CCCOC(=O)CCC(NC(=O)c1ccc(Nc2nc3ccccc3nc2-c2cccs2)cc1)C(=O)OCCC (stereo not given)
Outgoing: > 100 µM (inactive)

Incoming: Requested field: GI50. Item: Cc1cc(O)nc2c3c(ccc12)OC(C)(C)C=C3
Outgoing: 4.45 µM (inactive)

Incoming: Requested field: GI50. Item: S=C(NCc1ccccn1)N/N=C/c1ccccn1
Outgoing: < 0.01 µM (active)

Incoming: Requested field: GI50. Item: O=NN(CCF)C(=O)NC1CCSCC1
Outgoing: > 100 µM (inactive)

---

- System: NCI/ADR-RES
- Test name: NCI tumour cell line growth inhibition, 48 h
The source made the active and inactive calls. Rule as the data show it: active = GI50 up to about 1.1 µM and inactive = higher.
Your response should consist of one outcome taken from active, inactive

Answered cases to consult:
CCN(CC)CCCOc1cc2c(cc1OC)C(=O)N1CCC[C@H]1C=N2: inactive
COc1ccn(CC(=O)c2cc3ccccc3[nH]2)c(=O)n1: inactive
COC(=O)C12CCC(C(F)(F)C1=O)C2(C)C (stereo not given): inactive
C#CCCCC(=C)C[C@@H]1OC(=O)[C@H](C)[C@@H]1O: inactive
O=C(Nc1ccc(Cl)c(C(F)(F)F)c1)C(=O)c1c(O)c2ccccc2oc1=O: inactive

Incoming: Which outcome was assigned to COC1=C(NC(C)=O)C(=O)c2nc3n(c2C1=O)CCC3 in this test?
Outgoing: inactive

---

- Tested on: SR
- Test name: NCI tumour cell line growth inhibition, 48 h
Active and inactive are the calls of the source. Rule as the data show it: active = GI50 up to about 1.1 µM and inactive = higher. Non-standard residues stand in square brackets, D forms with d. Residues, ends and D or L forms follow the SMILES beside them. ξ: configuration not given here. *: point of attachment. NMeF = CN[C@@H](Cc1ccccc1)C(=O)O; ξNMeV = CNC(C(=O)O)C(C)C; Boc = CC(C)(C)OC(=O)*; OBn = c1ccc(CO*)cc1
Some compounds, each annotated with its measured GI50.

Examples with their reported GI50 follow.
[N-]=[N+]=NCc1nc(N)c2c3c(sc2n1)CCCC3: 4.99 µM (inactive)
O=C(O)Cc1ccc2nc(COC(=O)c3ccccc3)sc2c1: > 100 µM (inactive)
CC(C)C(C(=O)N1CCC[C@@H]1C(=O)OCc1ccccc1)N(C)C(=O)C(C(C)C)N(C)C(=O)[C@H](Cc1ccccc1)N(C)C(=O)[C@H](NC(=O)OC(C)(C)C)C(C)C (some centres undefined) (Boc-[dV][NMeF][ξNMeV][ξNMeV][dP]-OBn): > 29.8 µM (inactive)

As a next step, examine the compound that follows.
Incoming: Checklist item: GI50 tested on SR, entry c1ccc2nc3c(nc2c1)sc1nc2ccccc2n13 , value?
Outgoing: > 100 µM (inactive)

---

- Tested on: CCRF-CEM
- Test name: NCI tumour cell line growth inhibition, 48 h
Activity calls are given as the source filed them. Cut-off read from the data, not from the text of the source: active = GI50 up to about 1.1 µM and inactive = higher.
Some molecules, each annotated with its measured GI50.

Examples with their reported GI50 follow.
Cn1c(=O)c2c(ncn2CCCCn2ccnc2[N+](=O)[O-])n(C)c1=O: > 100 µM (inactive)
CCOC(=O)CC(c1ccccc1)C(C)(C(=O)OCC)C(=O)OCC (stereo unspecified): > 100 µM (inactive)
C=CCNC1=NC(=O)C(CC(=O)Nc2cccc(Cl)c2)S1 (stereo unspecified): > 100 µM (inactive)
COCOCC[C@@H]1CC=CC(NC(=O)OCc2ccccc2)C1/C=C/C(=O)CCC1OCCO1 (stereo partly specified): 17.3 µM (inactive)
Sc1nnc(-c2cccnc2)[nH]1: > 100 µM (inactive)

As a next step, examine the molecule that follows.
Incoming: Checklist item: GI50 tested on CCRF-CEM, entry C=CC[C@H]1C[C@@]2(C)OC[C@H](C(C)C)N2C1=O , value?
Outgoing: > 100 µM (inactive)

---

- Test system: UACC-257
- Test name: NCI tumour cell line growth inhibition, 48 h
The source made the active and inactive calls. Cut-off read from the data, not from the text of the source: active = GI50 up to about 1.1 µM and inactive = higher. Non-standard residues stand in square brackets, D forms with d. Residues, ends and D or L forms follow the SMILES beside them. ξ: configuration not given here. *: point of attachment. NMeF = CN[C@@H](Cc1ccccc1)C(=O)O; ξNMeV = CNC(C(=O)O)C(C)C; Boc = CC(C)(C)OC(=O)*; OBn = c1ccc(CO*)cc1
Some molecules, each annotated with its measured GI50.

Examples with their reported GI50 follow.
CN(C)CCn1c(=O)c2ccc3c4c(nn3CCN(C)C)c3cc(O)ccc3n(c1=O)c24: 0.308 µM (active)
NCCc1nc(-c2nc(C(=O)O)cs2)cs1: > 100 µM (inactive)
Brc1ccc2c(c1)-c1nc3c(cc1CC2)CCc1ccc(Br)cc1-3: > 100 µM (inactive)
O=C(N/N=C\c1cccc2ccccc12)Nc1cccc2ccccc12: 27.3 µM (inactive)
COc1ccccc1-c1cc(O)c2c(C)cc(C)nc2n1: 50.5 µM (inactive)

Incoming: Requested field: GI50. Item: Cc1cccc2c1Sc1ccccc1C2NC(=O)CN(C)C (stereo unspecified)
Outgoing: 52.6 µM (inactive)

Incoming: Requested field: GI50. Item: Cc1cc(C(C)(C)C)cc(Cc2cc(C(C)(C)C)cc(Cc3cc(C(C)(C)C)cc(C)c3O)c2O)c1O
Outgoing: 8.45 µM (inactive)

Incoming: Requested field: GI50. Item: CN(C)CCCCN1c2ccccc2Sc2ccc(N=[N+]=[N-])cc21
Outgoing: 1.92 µM (inactive)

Incoming: Requested field: GI50. Item: CN1CCCC(C(=O)OCC(=O)C2(O)CCC3C4CCC5=CC(=O)CCC5(C)C4C(O)CC32C)C1 (stereo unspecified)
Outgoing: 18.3 µM (inactive)

Incoming: Requested field: GI50. Item: C=C(CO)CC(O)c1cc(OC)ccc1OC (stereo unspecified)
Outgoing: > 100 µM (inactive)

Incoming: Requested field: GI50. Item: CCN1C(=O)/C(=C2\SC(c3ccccc3)(c3ccccc3)c3ccccc32)SC1=S
Outgoing: > 100 µM (inactive)

Incoming: Requested field: GI50. Item: C#CCn1c(=O)c(I)cn(/C(=C/C(=O)OCC)C(=O)OCC)c1=O
Outgoing: 3.06 µM (inactive)

Incoming: Requested field: GI50. Item: Cc1ccc(S(=O)(=O)N/N=C2/C3CCC(C3)C2c2ccccc2)cc1 (stereo unspecified)
Outgoing: > 100 µM (inactive)

Incoming: Requested field: GI50. Item: CN(CCO)c1nc(=O)c2c([nH]1)CCC2
Outgoing: > 100 µM (inactive)

Incoming: Requested field: GI50. Item: Cc1ccc2c(c1)/C(=N/Nc1ccccc1[N+](=O)[O-])C(=O)N2
Outgoing: 13.9 µM (inactive)

Incoming: Requested field: GI50. Item: CCN(CC)C(=S)N/N=C(\C)c1cccc(C)n1
Outgoing: < 0.01 µM (active)

Incoming: Requested field: GI50. Item: CC(C)C(C(=O)N1CCC[C@@H]1C(=O)OCc1ccccc1)N(C)C(=O)C(C(C)C)N(C)C(=O)[C@H](Cc1ccccc1)N(C)C(=O)[C@H](NC(=O)OC(C)(C)C)C(C)C (stereo partly specified) (Boc-[dV][NMeF][ξNMeV][ξNMeV][dP]-OBn)
Outgoing: 13.6 µM (inactive)

Incoming: Requested field: GI50. Item: NCCSCc1ccccc1Cl
Outgoing: 23.3 µM (inactive)

Incoming: Requested field: GI50. Item: Fc1cccc(F)c1C1SCc2nc3cc(Cl)ccc3n21 (stereo unspecified)
Outgoing: 32.8 µM (inactive)

Incoming: Requested field: GI50. Item: O=C1N2CCc3c([nH]c4ccccc34)C23CC2CCCCC12S3 (stereo unspecified)
Outgoing: 18.5 µM (inactive)

Incoming: Requested field: GI50. Item: O=C1c2ccccc2N2OC3(N4CCCC4)CCCC3C12c1ccccc1 (stereo unspecified)
Outgoing: 71.6 µM (inactive)

Incoming: Requested field: GI50. Item: COC(=O)C1[C@@H](C(=O)OC)C(=O)O[C@H]1c1cc(OC)c(OC)c(OC)c1 (stereo partly specified)
Outgoing: > 100 µM (inactive)

Incoming: Requested field: GI50. Item: Cc1ccccc1C1OC1C(=O)c1ccccc1N (stereo unspecified)
Outgoing: 74.3 µM (inactive)

Incoming: Requested field: GI50. Item: CCCc1c(C(=O)OCC)[nH]c(-c2ccc(-c3[nH]c(C(=O)OCC)c(CCC)c3C(=O)OCC)o2)c1C(=O)OCC
Outgoing: > 100 µM (inactive)

Incoming: Requested field: GI50. Item: COc1ccc2nc3cc(Cl)ccc3c(NCCCNCc3cc(OC)c(OC)c(OC)c3)c2c1
Outgoing: 1.94 µM (inactive)
